study.system: SIRT3 (Homo sapiens)
Sequence (Q9NTG7 102-399): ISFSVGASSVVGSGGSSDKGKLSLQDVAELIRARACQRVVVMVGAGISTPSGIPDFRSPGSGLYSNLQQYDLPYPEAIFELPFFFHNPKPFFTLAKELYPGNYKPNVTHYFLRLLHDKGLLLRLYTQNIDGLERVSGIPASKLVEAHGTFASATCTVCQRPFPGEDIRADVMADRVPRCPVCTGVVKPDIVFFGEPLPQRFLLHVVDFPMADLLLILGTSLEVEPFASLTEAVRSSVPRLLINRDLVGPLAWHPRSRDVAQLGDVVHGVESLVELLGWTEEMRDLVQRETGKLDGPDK
assay.procedure: SIRT3 deacetylation of Trp 5-mer peptide, OAADPr mass spec assay
assay.conditions: Trp SIRT3_IC50, Trp 5-mer peptide; class symbols
pIC50: −log10 of the molar value.
Recorded pIC50 for the following molecules

NC(=O)c1cc2ncnc(N3CCC(CCNC(=O)C4CCCC4)CC3)c2s1 :: > 6.00
COCCC1CCN(c2nccc3cc(C(N)=O)sc23)CC1 :: < 5.00
CS(=O)(=O)NCCN1CCN(c2ncnc3cc(C(N)=O)oc23)CC1 :: > 6.00
CC(C)(C)OC(=O)NCCC1CCN(c2ccnc3cc(C(N)=O)sc23)CC1 :: > 6.00
NC(=O)c1cc2ncnc(N3CCCCC3)c2s1 :: 5.00 to 6.00
CC(C)(C)C(=O)NCCN1CCN(c2ncnc3cc(C(N)=O)oc23)CC1 :: > 6.00
NCCC1CCN(c2ncnc3ccsc23)CC1 [Compound 188, 2,2,2-trifluoroacetate] :: < 5.00
COCCC1CCN(c2ncnc3cc(C(N)=O)oc23)CC1 :: 5.00 to 6.00

Next:
Exercise: Can you look up the measured pIC50 of Cc1c(C(N)=O)sc2c(N3CCC(CCNC(=O)OC(C)(C)C)CC3)ncnc12 for me?
Key: > 6.00

---

study.system: SIRT1 (Homo sapiens, UniProt Q96EB6)
Sequence (Q96EB6 whole entry): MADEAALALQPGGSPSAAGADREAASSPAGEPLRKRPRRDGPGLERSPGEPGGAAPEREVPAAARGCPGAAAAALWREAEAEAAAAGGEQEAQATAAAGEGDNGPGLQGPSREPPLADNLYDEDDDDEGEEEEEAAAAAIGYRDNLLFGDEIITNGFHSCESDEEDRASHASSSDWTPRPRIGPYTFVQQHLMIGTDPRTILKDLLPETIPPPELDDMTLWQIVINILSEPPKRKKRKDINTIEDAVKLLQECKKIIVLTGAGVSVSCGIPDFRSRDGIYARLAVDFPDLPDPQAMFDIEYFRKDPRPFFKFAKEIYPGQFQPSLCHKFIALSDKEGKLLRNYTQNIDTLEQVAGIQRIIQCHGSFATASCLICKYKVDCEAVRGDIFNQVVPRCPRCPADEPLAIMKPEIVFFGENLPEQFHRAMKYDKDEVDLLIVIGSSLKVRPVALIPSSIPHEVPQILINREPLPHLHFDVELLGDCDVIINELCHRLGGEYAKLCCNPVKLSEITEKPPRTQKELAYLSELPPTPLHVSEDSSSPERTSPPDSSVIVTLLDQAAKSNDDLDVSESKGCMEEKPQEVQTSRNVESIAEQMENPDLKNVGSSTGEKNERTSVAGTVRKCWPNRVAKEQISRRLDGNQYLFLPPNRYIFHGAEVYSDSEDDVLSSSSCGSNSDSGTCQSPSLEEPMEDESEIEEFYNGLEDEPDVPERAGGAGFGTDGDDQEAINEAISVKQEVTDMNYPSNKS
assay.procedure: SIRT1 deacetylation of Trp 5-mer peptide, OAADPr mass spec assay
assay.conditions: read-out: IC50 (μM) SIRT1; Trp 5-mer peptide and NAD at KM; mean of at least three determinations
Recorded IC50 for the following compounds
Please reply with the bare figure in µM and do not write the unit itself.

# example entries with known answers
NC(=O)c1cc2ncnc(N3CCN(CCN4CCCC4)CC3)c2s1 [Compound 35, bis(2,2,2-trifluoroacetate)] :: 0.053
Cc1c(C(N)=O)sc2c(N3CCC(CCNC(=O)C(C)(C)C)CC3)ncnc12 [Compound 39] :: 0.18
CC(=O)NCC1CCN(c2ncnc3cc(C(N)=O)sc23)CC1 [Compound 23] :: 16
CC(C)(C)C(=O)NCCC1CCN(c2ccnc3cc(C(N)=O)sc23)CC1 [Compound 37] :: 0.059
CC(C)(C)C(=O)NCCCC1CCN(c2ncnc3cc(C(N)=O)sc23)CC1 [Compound 29] :: 0.042
NCCC1CCN(c2ncnc3cc(C(N)=O)sc23)CC1 [Compound 16a] :: 1.6
CC(=O)NCCC1CCN(c2ncnc3cc(C(N)=O)sc23)CC1 [Compound 20] :: 0.11
CCNC(=O)c1cccc(C(=O)NCCN2CCN(c3ncnc4cc(C(N)=O)sc34)CC2)c1 [Compound 11b] :: 0.067

Next:
Exercise: Can you look up the measured IC50 of CC(=S)NCCC1CCN(c2ncnc3cc(C(N)=O)sc23)CC1 [Compound 25] for me?
Key: 0.056
